Test: Pharmacokinetics study after single oral dose of HP
Assay type: in vivo, C57BL/6 mice
Conditions: male, C57BL/6, mouse, in vivo; elimination half-life, plasma, single oral dose of 50 mg/kg HP, mice, n = 5
Outcome measure: half-life (h)
State just the number; it will be interpreted in h.

Requested field: half-life. Item: "O=c1ccc2ccc(O[C@@H]3O[C@H](CO)[C@@H](O)[C@H](O)[C@H]3O)cc2o1"
1.55

* * *

Experiment: Pharmacokinetics study after single oral dose of HP
Format: in vivo, C57BL/6 mice
Details: male, C57BL/6, mouse; plasma, single oral dose of 50 mg/kg HP, mice, n = 5
Outcome measure: Cmax (µM)
State just the number; it will be interpreted in µM.

Requested field: Cmax. Item: "O=c1ccc2cc(O)c(O)cc2o1"
3

Repeat with "O=c1ccc2ccc(O)cc2o1"
9.12

* * *

Assay: Pharmacokinetics study after single oral dose of HP
Type: in vivo, C57BL/6 mice
Conditions: male, C57BL/6, mouse, in vivo; 0.25 h after single oral dose of 50 mg/kg HP, mice, mean ± SD, n = 5; read-out: Blood drug concentration
Outcome measure: concentration at 0.25 h (µM)
State just the number; it will be interpreted in µM.

Requested field: concentration at 0.25 h. Item: O=c1ccc2ccc(O[C@@H]3O[C@H](CO)[C@@H](O)[C@H](O)[C@H]3O)cc2o1 [Skimmin, skimmin]
14.2

* * *

Test: Pharmacokinetics study after single oral dose of HP
Type: in vivo, C57BL/6 mice
Conditions: male, C57BL/6, mouse, plasma; 2 h after single oral dose of 50 mg/kg HP, mice, mean ± SD, n = 5; read-out: Blood drug concentration
Please go through the items and note down their concentration at 2 h.
State just the number; it will be interpreted in nM.

Requested field: concentration at 2 h. Item: "O=c1ccc2cc(O)c(O)cc2o1"
650

Repeat with "O=c1ccc2ccc(O)cc2o1"
1450

* * *

Experiment: Pharmacokinetics study after single oral dose of HP
Format: in vivo, C57BL/6 mice
Details: male, C57BL/6, mouse, in vivo; 12 h after single oral dose of 50 mg/kg HP, mice, mean ± SD, n = 5; read-out: Blood drug concentration
Outcome measure: concentration at 12 h (nM)
State just the number; it will be interpreted in nM.

Requested field: concentration at 12 h. Item: O=c1ccc2ccc(O[C@@H]3O[C@H](CO)[C@@H](O)[C@H](O)[C@H]3O)cc2o1 [Skimmin, skimmin]
50

* * *

Assay: Pharmacokinetics study after single oral dose of HP
Type: in vivo, C57BL/6 mice
Settings: male, C57BL/6, mouse, plasma; 0.25 h after single oral dose of 50 mg/kg HP, mice, mean ± SD, n = 5; read-out: Blood drug concentration
Outcome measure: concentration at 0.25 h (µM)
State just the number; it will be interpreted in µM.

Requested field: concentration at 0.25 h. Item: "O=c1ccc2cc(O)c(O)cc2o1"
2.98

Repeat with "O=c1ccc2ccc(O)cc2o1"
9.12

* * *

Experiment: Pharmacokinetics study after single oral dose of HP
Format: in vivo, C57BL/6 mice
Settings: male, C57BL/6, mouse, plasma; 8 h after single oral dose of 50 mg/kg HP, mice, mean ± SD, n = 5; read-out: Blood drug concentration
Outcome measure: concentration at 8 h (nM)
State just the number; it will be interpreted in nM.

Requested field: concentration at 8 h. Item: "O=c1ccc2ccc(O)cc2o1"
140

Repeat with "O=c1ccc2cc(O)c(O)cc2o1"
120

* * *

Experiment: Pharmacokinetics study after single oral dose of HP
Type: in vivo, C57BL/6 mice
Conditions: male, C57BL/6, mouse; plasma, single oral dose of 50 mg/kg HP, mice, n = 5
Please go through the items and note down their AUC(0-inf).
State just the number; it will be interpreted in µM·h.

Requested field: AUC(0-inf). Item: "O=c1ccc2ccc(O)cc2o1"
12.2

Repeat with "O=c1ccc2cc(O)c(O)cc2o1"
6.66

* * *

Please go through the items and note down their concentration at 3 h.
Experiment: Pharmacokinetics study after single oral dose of HP
Type: in vivo, C57BL/6 mice
Conditions: male, C57BL/6, mouse, plasma; 3 h after single oral dose of 50 mg/kg HP, mice, mean ± SD, n = 5; read-out: Blood drug concentration
State just the number; it will be interpreted in nM.

Requested field: concentration at 3 h. Item: "O=c1ccc2ccc(O)cc2o1"
1100

Repeat with "O=c1ccc2cc(O)c(O)cc2o1"
680

* * *

Assay: Pharmacokinetics study after single oral dose of HP
Assay type: in vivo, C57BL/6 mice
Settings: male, C57BL/6, mouse, in vivo; plasma, single oral dose of 50 mg/kg HP, mice, n = 5
Outcome measure: AUC(0-inf) (µM·h)
State just the number; it will be interpreted in µM·h.

Requested field: AUC(0-inf). Item: "O=c1ccc2ccc(O[C@@H]3O[C@H](CO)[C@@H](O)[C@H](O)[C@H]3O)cc2o1"
23.4

* * *

Please go through the items and note down their concentration at 0.5 h.
Assay: Pharmacokinetics study after single oral dose of HP
Type: in vivo, C57BL/6 mice
Settings: male, C57BL/6, mouse, plasma; 0.5 h after single oral dose of 50 mg/kg HP, mice, mean ± SD, n = 5; read-out: Blood drug concentration
State just the number; it will be interpreted in µM.

Requested field: concentration at 0.5 h. Item: "O=c1ccc2cc(O)c(O)cc2o1"
3

Repeat with "O=c1ccc2ccc(O)cc2o1"
7.35

* * *

Experiment: Pharmacokinetics study after single oral dose of HP
Assay type: in vivo, C57BL/6 mice
Settings: male, C57BL/6, mouse, in vivo; plasma, single oral dose of 50 mg/kg HP, mice, n = 5
Outcome measure: Tmax (min)
State just the number; it will be interpreted in min.

Requested field: Tmax. Item: "O=c1ccc2ccc(O[C@@H]3O[C@H](CO)[C@@H](O)[C@H](O)[C@H]3O)cc2o1"
15

* * *

Assay: Pharmacokinetics study after single oral dose of HP
Format: in vivo, C57BL/6 mice
Settings: male, C57BL/6, mouse; elimination half-life, plasma, single oral dose of 50 mg/kg HP, mice, n = 5
Please go through the items and note down their half-life.
State just the number; it will be interpreted in h.

Requested field: half-life. Item: O=c1ccc2ccc(O)cc2o1 [Umbelliferone, umbelliferone]
1.69

Repeat with O=c1ccc2cc(O)c(O)cc2o1 [Esculetin, esculetin]
2.3

* * *

Assay: Pharmacokinetics study after single oral dose of HP
Assay type: in vivo, C57BL/6 mice
Conditions: male, C57BL/6, mouse, in vivo; plasma, single oral dose of 50 mg/kg HP, mice, n = 5; read-out: MRT(0−t)
Outcome measure: MRT last (h)
State just the number; it will be interpreted in h.

Requested field: MRT last. Item: "O=c1ccc2ccc(O[C@@H]3O[C@H](CO)[C@@H](O)[C@H](O)[C@H]3O)cc2o1"
1.75

* * *

Please go through the items and note down their Tmax.
Test: Pharmacokinetics study after single oral dose of HP
Assay type: in vivo, C57BL/6 mice
Details: male, C57BL/6, mouse; plasma, single oral dose of 50 mg/kg HP, mice, n = 5
A bare number is not enough; add the unit after it.

Requested field: Tmax. Item: O=c1ccc2cc(O)c(O)cc2o1 [Esculetin, esculetin]
30 min

Repeat with O=c1ccc2ccc(O)cc2o1 [Umbelliferone, umbelliferone]
15 min

* * *

Experiment: Pharmacokinetics study after single oral dose of HP
Type: in vivo, C57BL/6 mice
Conditions: male, C57BL/6, mouse, in vivo; 2 h after single oral dose of 50 mg/kg HP, mice, mean ± SD, n = 5; read-out: Blood drug concentration
Experimental: All of the animals were fasted for 12 h before receiving HP and were then allowed to eat for 4 h after administration. The dosing solutions used for the animal studies were prepared by dissolving the required amounts of HP in distilled water. […] The plasma was separated and stored at 2–8°C until analysis. […] Louis, MO, USA) and then mixed with 180 μL of acetonitrile (Merck, Darmstadt, Germany) to precipitate protein. […]
Outcome measure: concentration at 2 h (µM)
State just the number; it will be interpreted in µM.

Requested field: concentration at 2 h. Item: "O=c1ccc2ccc(O[C@@H]3O[C@H](CO)[C@@H](O)[C@H](O)[C@H]3O)cc2o1"
3.64
